targetUnderTest: CCK2R (Rattus norvegicus, UniProt P30553)
Construct: host or cells: AR42J cells
Sequence (P30553 whole entry): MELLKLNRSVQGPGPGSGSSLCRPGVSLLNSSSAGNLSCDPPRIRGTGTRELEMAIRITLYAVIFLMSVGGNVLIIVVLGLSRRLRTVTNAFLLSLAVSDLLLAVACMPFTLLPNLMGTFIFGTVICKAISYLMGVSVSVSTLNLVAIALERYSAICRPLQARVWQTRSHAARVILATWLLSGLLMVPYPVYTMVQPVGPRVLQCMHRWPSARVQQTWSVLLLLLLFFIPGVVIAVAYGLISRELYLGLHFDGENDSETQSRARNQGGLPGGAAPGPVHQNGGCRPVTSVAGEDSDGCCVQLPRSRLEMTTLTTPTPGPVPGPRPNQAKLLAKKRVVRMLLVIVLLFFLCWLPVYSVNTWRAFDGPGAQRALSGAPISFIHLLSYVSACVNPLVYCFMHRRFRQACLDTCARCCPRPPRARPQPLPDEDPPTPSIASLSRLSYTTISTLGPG
assayExplanation: Competitive cell-binding assay on AR42J cells with 125I-C3 as competitive ligand
measuredEndpoint: Relative Binding Affinity CCK2R

>>> obsvalue("C[C@@H](O)[C@H](NC(=O)[C@@H]1CSSC[C@H](NC(=O)[C@@H](Cc2ccccc2)NC(=O)COCCOCCNC(=O)[C@H](CCCCNC(=O)CCC(C(=O)O)N2CCN(CC(=O)O)CCN(CC(=O)O)CCN(CC(=O)O)CC2)NC(=O)COCCOCCNC(=O)c2cccc(NC(=O)N[C@@H]3CN(C4CCCCC4)c4ccccc4N(CC(=O)C(C)(C)C)C3=O)c2)C(=O)N[C@@H](Cc2ccc(O)cc2)C(=O)N[C@H](Cc2c[nH]c3ccccc23)C(=O)N[C@@H](CCCCN)C(=O)N[C@@H]([C@@H](C)O)C(=O)N1)C(=O)O (stereo partly shown)")
8.8
